Conditions: 333.15 K; 25000 kPa; Liquid; Vibrating tube method
QUANTITY: mass density (kg/m3)

Cc1ccc(C)s1 [2,5-dimethylthiophene] : 966.97
Cc1cccs1 [2-methylthiophene] : 999.74
Cc1ccsc1 [3-methylthiophene] : 1001.22
c1ccsc1 [thiophene] : 1040.87

###

Details: 303.15 K; 65000 kPa; Liquid; Vibrating tube method
QUANTITY: mass density (kg/m3)

c1ccsc1 [thiophene] : 1100.09
Cc1cccs1 [2-methylthiophene] : 1054.72
Cc1ccsc1 [3-methylthiophene] : 1055.16
Cc1ccc(C)s1 [2,5-dimethylthiophene] : 1019.68
